- Tested on: β-galactosidase in CMV-LacZ C2C12 myoblasts
- TEST_DETAILS: CMV-LacZ secondary screen in C2C12 myoblasts (β-Gal stabilizing assay)
- Type: cell-based, mouse
- CONDITION: 40 uM; CMV-LacZ C2C12 myoblasts
So basically: CMV-LACZ in Myoblasts (β-galactosidase activity relative to DMSO) at 1 or higher? That is t. Lower than 1? That is f.

COMPOUND	EXPERIMENTAL_TARGET	DISCRETE_LABEL
O=S(=O)(NC(=NC1CCCCC1)c1ccccc1F)c1ccccc1	β-galactosidase in CMV-LacZ C2C12 myoblasts	t
CCN(C(=O)c1ccc(S(=O)(=O)N(C)C)cc1)C(C)C(=O)Nc1ccc(C)cc1 (stereo not drawn)	β-galactosidase in CMV-LacZ C2C12 myoblasts	f

Please check the record CC(=O)Nc1ccc(-n2c(C)nc(=O)c(-c3ccccc3)c2C)cc1 and state if its CMV-LACZ in Myoblasts (β-galactosidase activity relative to DMSO) is at or above 1. f

Hello, I need to know if c1ccc(-c2nn[nH]n2)nc1 has measured CMV-LACZ in Myoblasts (β-galactosidase activity relative to DMSO) not below 1. Thanks! t

Dear colleague, could you confirm whether CC1Cc2ccccc2N1C(=O)CSc1nnc(N)s1 (stereo not drawn) has CMV-LACZ in Myoblasts (β-galactosidase activity relative to DMSO) at or above 1? t

# check: CMV-LACZ in Myoblasts (β-galactosidase activity relative to DMSO) of COC(=O)Cn1c(=O)c2c(nc3n2CC(C)CN3Cc2ccccc2)n(C)c1=O (stereo not drawn) is greater than or equal to 1 f

Has CCOc1ccc(Br)cc1S(=O)(=O)Nc1ccc(C(=O)Nc2ccccc2OC)cc1 a recorded CMV-LACZ in Myoblasts (β-galactosidase activity relative to DMSO) greater than or equal to 1? t

Is CMV-LACZ in Myoblasts (β-galactosidase activity relative to DMSO) for CSc1ccc(S(=O)(=O)NCc2ccccc2)cc1 at or above 1? f

Is the recorded value of CMV-LACZ in Myoblasts (β-galactosidase activity relative to DMSO) equal to or greater than 1 for this compound? CC(C)(C)c1csc(NC(=O)c2cccnc2)n1 t

----------
- System: β-galactosidase in CMV-LacZ C2C12 myotubes
- TEST_DETAILS: CMV-LacZ secondary screen in C2C12 myotubes (β-Gal stabilizing assay)
- Format: cell-based, mouse
- CONDITION: 5 uM; C2C12 CMV-LacZ myotubes; fold relative to DMSO
Each entry below carries its reported CMV-LACZ in Myotubes, signal relative to DMSO.
Kindly provide the number alone.

MOLECULE	MEASUREMENT
O=C(NCCc1ccc(Cl)cc1)C1CCCO1 (stereo not drawn) [MLS001198271-01]	0.9907

Please give the measured CMV-LACZ in Myotubes, signal relative to DMSO for this molecule: COC(=O)c1cc(S(=O)(=O)NCC2CCN(Cc3ccc(Cl)cc3)CC2)cn1C [MLS001095033-01] 1.0230

Consider the molecule shown here: Cc1cccc(Cn2cnc3c(nnn3Cc3ccc(Cl)cc3)c2=O)c1 [MLS000092785-01] What is its recorded CMV-LACZ in Myotubes, signal relative to DMSO? 1.0185

----------
- Test system: α7 integrin (LacZ reporter in α7+/LacZ myotubes)
- TEST_DETAILS: Myotube α7 integrin FDG assay (Burkin assay in myotubes, 96-well)
- Assay type: cell-based, mouse
- CONDITION: myotubes, 10 uM
QUANTITY_MEASURED: Burkin Assay in Myotubes, α7 integrin LacZ reporter signal relative to DMSO
# print the numeric value only

As a guide, the following entries are already answered.
COMPOUND	MEASUREMENT
COc1ccc2oc(C[S+]([O-])c3ccccc3)c(C(=O)O)c2c1 (stereo not drawn)	1.062
CN(C)CCNc1ncnc2sc(-c3ccccc3)cc12	0.6812
Cc1ccccc1NC(=O)c1ccc2c(O)c(S(=O)(=O)c3ccccc3)c(=O)[nH]c2c1	1.03
O=C(COc1ccc(Cl)cc1)N1CCN(C2CCCC2)CC1.O=C(O)C(=O)O	0.9591
O=C1Nc2ccccc2/C1=C/c1ccccc1F	1.053
Cc1cc(C)cc(OCC(=O)N/N=C/c2ccccn2)c1	0.9

Entry COc1ccc(NC(=O)C2(N(C(=O)Cn3nnnc3N)c3ccc(OC)cc3)CCCCC2)cc1 has what Burkin Assay in Myotubes, α7 integrin LacZ reporter signal relative to DMSO? 0.9249

Reported Burkin Assay in Myotubes, α7 integrin LacZ reporter signal relative to DMSO for CNC(=O)/C(=C\c1cccc(Oc2ccccc2)c1)NC(=O)c1ccccc1 : what is it? 0.9956

Please look up its Burkin Assay in Myotubes, α7 integrin LacZ reporter signal relative to DMSO: Cc1cccc(Cn2cnc3c(nnn3Cc3ccc(Cl)cc3)c2=O)c1 0.8586

Look at this compound and give its reported Burkin Assay in Myotubes, α7 integrin LacZ reporter signal relative to DMSO. Cc1ccc(NC(=O)COc2ccccc2CNC(C)(C)CC(C)(C)C)cc1 0.4774

Could you tell me which Burkin Assay in Myotubes, α7 integrin LacZ reporter signal relative to DMSO is on file for Cc1cc([N+](=O)[O-])ccc1NC(=O)C(C)N1CCN(c2ccccn2)CC1 (stereo not drawn) ? 0.972

Report Burkin Assay in Myotubes, α7 integrin LacZ reporter signal relative to DMSO for CCOn1c(=O)c(-c2ccccc2)[n+]([O-])c2ccccc21 please. 1.004
